assay-notes: Single-dose plasma pharmacokinetics after i.g. administration
Assay type: in vivo, SD rats
experimental-setup: SD, rat, plasma, oral; female rats, i.g. vs i.v.; read-out: absolute (oral) bioavailability

molecule | bioavailability / %
C[C@H]1CC[C@@H]2N(C1)C[C@H]1[C@@H]3C[C@H]4[C@@H](CC(=O)[C@H]5C[C@@H](O)CC[C@@]54C)[C@@H]3CC[C@@H]1[C@]2(C)O [verticinone, Verticinone] | 2.74

* * *

assay-notes: Single-dose plasma pharmacokinetics after i.g. administration
Assay type: in vivo, SD rats
experimental-setup: SD, rat, plasma, po; i.g. 4 mg/kg single dose, male rats; read-out: MRT0–t
quantity-kind: MRT last (h)

smiles-notation | measured-number
C[C@H]1CC[C@@H]2N(C1)C[C@H]1[C@@H]3C[C@H]4[C@@H](CC(=O)[C@H]5C[C@@H](O)CC[C@@]54C)[C@@H]3CC[C@@H]1[C@]2(C)O | 3.19
